Field: Ki. Provide a value for each of the molecules that follow.
# experimental system: TYK2 (Homo sapiens, UniProt P29597)
# Construct: made in house; host or cells: SF9 insect cells (baculovirus)
# Sequence (P29597 873-1187): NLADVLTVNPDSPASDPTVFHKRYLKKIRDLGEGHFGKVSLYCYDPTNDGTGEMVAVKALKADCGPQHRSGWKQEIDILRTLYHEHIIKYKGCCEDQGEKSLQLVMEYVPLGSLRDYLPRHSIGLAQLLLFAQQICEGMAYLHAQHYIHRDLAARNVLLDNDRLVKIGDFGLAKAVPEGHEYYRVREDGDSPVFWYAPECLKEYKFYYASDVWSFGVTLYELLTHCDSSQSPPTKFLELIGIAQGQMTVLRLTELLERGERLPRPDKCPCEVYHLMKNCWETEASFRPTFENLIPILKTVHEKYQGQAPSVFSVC
# assay explanation: TYK2 inhibition (Table 4)
# Format: biochemical

State its Ki for this molecule: `C[C@@H](O)c1nc2cnc3[nH]ccc3c2n1C1CCN(Cc2nccn2C)CC1`
1160 nM

Return Ki (reported value) for this molecule: `N#CC[C@H]1CC[C@H](n2c(CO)nc3cnc4[nH]ccc4c32)CC1`
0.25 nM

Please look at this molecule and report its Ki: `Cc1nc(CN2CCC(n3c([C@@H](C)O)nc4cnc5[nH]ccc5c43)CC2)c[nH]1`
2670 nM

Read the entry CC(CF)N1CCC(n2c([C@@H](C)O)nc3cnc4[nH]ccc4c32)CC1 (stereo partly drawn) and write its reported Ki.
750 nM

Give the reported value of Ki for this record: `N#C[C@@H]1C[C@@H]1C(=O)N1CCC[C@@H](n2cnc3cnc4[nH]ccc4c32)C1`
101 nM

Please give the documented Ki of `CC(=O)NCCc1nc2cnc3[nH]ccc3c2n1C1CCCCC1`
27.5 nM

Identify measured Ki corresponding to `N#CCCN1CCC(n2c(COCC3CCC3)nc3cnc4[nH]ccc4c32)CC1`
635 nM

For the molecule `CN(C)CC(=O)N1CCC(n2cnc3cnc4[nH]ccc4c32)CC1` , give its measured Ki value.
1190 nM

Give the reported value of Ki for this record: `CS(=O)(=O)NCCc1nc2cnc3[nH]ccc3c2n1C1CCN(CCC#N)CC1`
63.1 nM
